This listing pairs molecules with measured solubility kinetic.
- MEASUREMENT_CONTEXT: buffer; pH 7.4; 200.0 µM

MOL: O=C1CN(C(=O)/C=C/c2ccccc2)CCN1
solubility kinetic: > 34.5 µg/mL

MOL: O=C(OCC(=O)N1CCN(C(=O)c2ccco2)CC1)c1ccc(Cl)nc1
solubility kinetic: > 56.7 µg/mL

MOL: NC(=O)N1CCc2ccccc21
solubility kinetic: > 24.3 µg/mL

###

- MEASUREMENT_CONTEXT: buffer; pH 7.4; 200.0 µM
QUANTITY: solubility kinetic

COMPOUND: Cc1ccc2nc(SCC(=O)Nc3cc(C)on3)c(C)cc2c1
OBSERVED: < 0.2 µg/mL

COMPOUND: O=C(COC(=O)c1cnccn1)c1ccc([N+](=O)[O-])cc1
OBSERVED: > 43.1 µg/mL

COMPOUND: CNC(=O)COC(=O)COc1ccc2c(C)cc(=O)oc2c1
OBSERVED: > 45.8 µg/mL

COMPOUND: COc1ccc(OC)c(S(=O)(=O)N2CCCC(C(=O)NCc3ccccn3)C2)c1 (configuration not stated)
OBSERVED: > 62.9 µg/mL

COMPOUND: O=Cc1ccc(OCC(=O)N2CCOCC2)cc1
OBSERVED: > 37.4 µg/mL

COMPOUND: O=C(Nc1nccs1)C1CC(=O)N(CCc2ccc(F)cc2)C1 (configuration not stated)
OBSERVED: > 50 µg/mL

COMPOUND: N#CCCN(CCC#N)C(=S)NC1CC2C=CC1C2 (configuration not stated)
OBSERVED: > 41.2 µg/mL

COMPOUND: O=C(/C=C/Sc1ccc(C(F)(F)F)cn1)c1ccccc1
OBSERVED: < 0.7 µg/mL

COMPOUND: N#Cc1ccccc1NC(=S)NC(=O)C1CCC1
OBSERVED: > 38.9 µg/mL

COMPOUND: O=C(O)C1CC=CCC1C(=O)Nc1cccc([N+](=O)[O-])c1 (configuration not stated)
OBSERVED: > 43.5 µg/mL

COMPOUND: CSc1sc(C(=O)N2CCc3ccccc32)cc1S(=O)(=O)C(C)C
OBSERVED: < 0.8 µg/mL

COMPOUND: NC(=O)COC(=O)CCCSc1nc2ccccc2s1
OBSERVED: > 46.6 µg/mL

FYI, the data here is from PubChem BioAssay AID1996.
